// data source = patent US20210238197A1

Provide the reported MIC of each item.
System: multiple species and strains
Assay: microbe, parasite or virus in culture
Settings: Klebsiella pneumoniae, ATCC10031, read-out: MIC S4, K. pneumoniae ATCC 10031
One number for each entry, in mg/L.

Reference set (2 entries):
[
  {
    "COMPOUND": "CNc1cc(F)c(Cl)c2c1[nH]c1ncc(-c3ccc4ccc(C(=O)O)c(=O)n4c3)c(N3CC[C@@]4(C[C@H]4N)C3)c12 [Example 5.01C]",
    "EXPERIMENTAL_TARGET": "multiple species and strains",
    "RECORDED_NUMBER": 0.032
  },
  {
    "COMPOUND": "CNc1cc(F)c(F)c2c1[nH]c1ncc(-c3ccc4ccc(C(=O)O)c(=O)n4c3)c(N3CC[C@]4(C[C@H]4N)C3)c12 [Example 4.01C]",
    "EXPERIMENTAL_TARGET": "multiple species and strains",
    "RECORDED_NUMBER": 0.074
  }
]

State recorded MIC for all listed compounds.
1. CNc1cc(F)c(Cl)c2c1[nH]c1ncc(-c3ccc4ccc(C(=O)O)c(=O)n4c3)c(N3C[C@H]4CC[C@@H](N(C)C)[C@H]4C3)c12
2. CNc1cc(F)c(F)c2c1[nH]c1ncc(-c3ccc4ccc(C(=O)O)c(=O)n4c3)c(N3CC[C@]4(C[C@@H]4N)C3)c12 [Example 4.01D]

output:
1. 0.069
2. 0.037

----------
Tested on: multiple species and strains
Assay: microbe, parasite or virus in culture
Settings: Klebsiella pneumoniae, ATCCBAA2146, read-out: MIC S6, K. pneumoniae ATCC BAA-2146
Provide the reported MIC of each item.

Reference set (3 entries):
[
  {
    "COMPOUND": "CNc1cc(F)c(Cl)c2c1[nH]c1ncc(-c3ccc4ccc(C(=O)O)c(=O)n4c3)c(N3CC[C@@]4(C[C@@H]4N)C3)c12 (single isomer, unassigned) [Example 5.01A]",
    "MIC": "4.13 µg/mL"
  },
  {
    "COMPOUND": "CNc1cc(F)c(Cl)c2c1[nH]c1ncc(-c3ccc4ccc(C(=O)O)c(=O)n4c3)c(N3CC[C@H]4CN(C)C[C@H]43)c12",
    "MIC": "0.527 µg/mL"
  },
  {
    "COMPOUND": "CNc1cc(F)c(C#N)c2c1[nH]c1ncc(-c3ccc4ccc(C(=O)O)c(=O)n4c3)c(N3C[C@H]4CCN(C)[C@H]4C3)c12 (single isomer, unassigned)",
    "MIC": "1.04 µg/mL"
  }
]

State recorded MIC for all listed compounds.
1. CNc1cc(F)c(F)c2c1[nH]c1ncc(-c3ccc4ccc(C(=O)O)c(=O)n4c3)c(N(C)C)c12
2. CNc1cc(F)c(Cl)c2c1[nH]c1ncc(-c3ccc4ccc(C(=O)O)c(=O)n4c3)c(N3CC[C@]4(C[C@H]4N)C3)c12 [Example 5.01B]
3. CNc1cc(F)cc2c1[nH]c1nc(Oc3cnc(C)nc3)nc(N3C[C@H]4C[C@@H]3C[C@H]4N)c12 [GP-6, reference compound]

output:
1. 1.8 µg/mL
2. 4.13 µg/mL
3. 2.71 µg/mL

----------
Provide the reported MIC of each item.
Test system: multiple species and strains
Assay: microbe, parasite or virus in culture
Settings: Acinetobacter baumannii, ATCC51432, read-out: MIC S2, A. baumannii ATCC 51432
Numbers only, in µg/mL.

[
  {
    "COMPOUND": "CNc1cc(F)c(C#N)c2c1[nH]c1ncc(-c3ccc4ccc(C(=O)O)c(=O)n4c3)c(N3CC[C@H]4CN(C)C[C@H]43)c12",
    "UNITS_OF_MEASURE": "µg/mL",
    "MIC": 0.215
  },
  {
    "COMPOUND": "CNc1cc(F)cc2c1[nH]c1nc(Oc3cnc(C)nc3)nc(N3C[C@H]4C[C@@H]3C[C@H]4N)c12 [GP-6, reference compound]",
    "UNITS_OF_MEASURE": "µg/mL",
    "MIC": 0.339
  }
]

State recorded MIC for all listed compounds.
1. CNc1cc(F)c(C#N)c2c1[nH]c1ncc(-c3ccc4ccc(C(=O)O)c(=O)n4c3)c(N3C[C@H]4CCN(C)[C@H]4C3)c12 (single isomer, unassigned)
2. CNc1cc(F)c(F)c2c1[nH]c1ncc(-c3ccc4c(C)cc(C(=O)O)c(=O)n4c3)c(N3CC[C@H]4CN(C)C[C@H]43)c12 (relative stereo)
3. CNc1cc(F)c(F)c2c1[nH]c1ncc(-c3ccc4c(Cl)cc(C(=O)O)c(=O)n4c3)c(N3CC[C@H]4CN(C)C[C@H]43)c12 (relative stereo)

output:
1: 0.26; 2: 0.614; 3: 0.541
